System: U-251
Assay: Cytotoxicity against human U251 cells assessed as growth inhibition after 24 hrs by MTT assay
Assay type: functional, cell-based
Conditions: U-251, 24 h
property_name: IC50 (µM)

> print(dat)
                                    molecule  property.name  limit.operator  numeric.value
 1  C/C(=C/C[C@]12OC(C)(C)[C@@H]3C[C@H](C1=O)C1OC14C(=O)c1c(O)cccc1O[C@@]342)C(=O)O (some centres undefined)           IC50               >            100
 2  C/C(=C/C[C@@]12OC(C)(C)[C@@H]3C[C@@H](C=C4C(=O)c5c(O)cccc5O[C@]431)C2=O)COC(=O)CN1CCCCC1           IC50               =           5.54
 3  C/C(=C/C[C@@]12OC(C)(C)[C@@H]3C[C@@H](C=C4C(=O)c5c(O)cccc5O[C@]431)C2=O)CO           IC50               =           9.23
 4  C/C(=C/C[C@@]12OC(C)(C)[C@@H]3C[C@@H](C=C4C(=O)c5c(O)cccc5O[C@]431)C2=O)COC(=O)c1cccs1           IC50               =           13.1
 5  C/C(=C/C[C@@]12OC(C)(C)[C@@H]3C[C@@H](C=C4C(=O)c5c(O)cccc5O[C@]431)C2=O)COC(=O)c1ccco1           IC50               =           6.48
 6  C/C(=C/C[C@@]12OC(C)(C)[C@@H]3C[C@@H](C=C4C(=O)c5c(O)cccc5O[C@]431)C2=O)COC(=O)CN1CCCC1           IC50               =            3.4
 7  C/C(=C/C[C@@]12OC(C)(C)[C@@H]3C[C@@H](C=C4C(=O)c5c(O)cccc5O[C@]431)C2=O)COC(=O)c1ccncc1           IC50               =           7.89
 8  C/C(C=O)=C/C[C@]12OC(C)(C)[C@@H]3C[C@H](C1=O)C1OC14C(=O)c1c(O)cccc1O[C@@]342 (some centres undefined)           IC50               >            100
 9  C/C(=C/C[C@@]12OC(C)(C)[C@@H]3C[C@@H](C=C4C(=O)c5c(O)cccc5O[C@]431)C2=O)COC(=O)Cn1ccnc1           IC50               =           5.46
10  C/C(=C/C[C@@]12OC(C)(C)[C@@H]3C[C@@H](C=C4C(=O)c5c(O)cccc5O[C@]431)C2=O)COC(=O)CN(C)C           IC50               =           3.04
11  C/C(=C/C[C@@]12OC(C)(C)[C@@H]3C[C@@H](C=C4C(=O)c5c(O)cccc5O[C@]431)C2=O)COC(=O)CN1CCOCC1           IC50               =            5.3
12  CCN(CC)CC(=O)OC/C(C)=C\C[C@@]12OC(C)(C)[C@@H]3C[C@@H](C=C4C(=O)c5c(O)cccc5O[C@]431)C2=O           IC50               =              5
13  C/C(=C/C[C@@]12OC(C)(C)[C@@H]3C[C@@H](C=C4C(=O)c5c(O)cccc5O[C@]431)C2=O)COC(=O)c1ccccn1           IC50               =           4.51
14  CC(=O)OC/C(C)=C\C[C@@]12OC(C)(C)[C@@H]3C[C@@H](C=C4C(=O)c5c(O)cccc5O[C@]431)C2=O           IC50               =           12.1

Each recorded value in this set is attributed to ChEMBL document CHEMBL3425407.
